# Test system: Staphylococcus epidermidis
# Assay Notes: Antibacterial activity against methicillin-resistant Staphylococcus epidermidis DSM 50160384
# Type: functional, organism-based
Where a SMILES comes first, the peptide text is derived from it. The star is where a group is joined. Boc = CC(C)(C)OC(=O)*; NHBn = c1ccc(CN*)cc1
Reported Property: IC50 (µg/mL)
One number for each entry, in µg/mL.

Check out these entries, answers already filled in.
{"columns": ["Compound", "IC50 (µg/mL)"],
 "data": [
  ["N[C@@H](Cc1c[nH]c2ccccc12)C(=O)N[C@@H](Cc1c[nH]c(C23CC4CC(CC(C4)C2)C3)n1)C(=O)NCc1ccccc1", 4.7],
  ["COC(=O)[C@H](CCCNC(=N)N)NC(=O)[C@@H](N)Cc1c[nH]c(C23CC4CC(CC(C4)C2)C3)n1", 4.28],
  ["CN[C@H](CC(C)C)C(=O)N[C@H]1C(=O)N[C@@H](CC(N)=O)C(=O)N[C@H]2C(=O)N[C@H]3C(=O)N[C@H](C(=O)N[C@H](C(=O)O)c4cc(O)cc(O)c4-c4cc3ccc4O)[C@H](O)c3ccc(c(Cl)c3)Oc3cc2cc(c3O[C@@H]2O[C@H](CO)[C@@H](O)[C@H](O)[C@H]2O[C@H]2C[C@](C)(N)[C@H](O)[C@H](C)O2)Oc2ccc(cc2Cl)[C@H]1O", 0.14],
  ["COC(=O)[C@H](CCCNC(=N)N)NC(=O)[C@@H](N)Cc1c[nH]cn1 (H-His-Arg-OMe)", 2.72],
  ["CC(C)(C)OC(=O)N[C@@H](Cc1c[nH]c2ccccc12)C(=O)N[C@@H](Cc1c[nH]c(C23CC4CC(CC(C4)C2)C3)n1)C(=O)NCc1ccccc1", 29.1],
  ["CC(C)(C)OC(=O)N[C@@H](Cc1c[nH]c2ccccc12)C(=O)N[C@@H](Cc1c[nH]cn1)C(=O)NCc1ccccc1 (Boc-Trp-His-NHBn)", 15.6]
]}

Okay, next one:
stdin: Annotate the compound "COC(=O)[C@H](CCCNC(=N)N)NC(=O)[C@@H](N)Cc1c[nH]c(C2CCC2)n1" with its measured IC50.
stdout: 6.66

----------
# System: Klebsiella pneumoniae
# Assay Notes: Antibacterial activity against Klebsiella pneumoniae ATCC 700603 after 15 to 18 hrs under aerobic condition by modified broth microdilution method
# Format: functional
Where a SMILES comes first, the peptide text is derived from it. The star is where a group is joined. Boc = CC(C)(C)OC(=O)*; NHBn = c1ccc(CN*)cc1
Answer each item with its documented MIC.

{"columns": ["Compound", "Measured"],
 "data": [
  ["CC(C)c1nc(C[C@H](NC(=O)OC(C)(C)C)C(=O)N[C@@H](CCCNC(=N)N)C(=O)NCc2ccccc2)c[nH]1", "> 200 µg/mL"],
  ["COC(=O)[C@H](CCCNC(=N)N)NC(=O)[C@@H](N)Cc1c[nH]c(C(C)C)n1", "> 200 µg/mL"],
  ["CC(C)(C)OC(=O)N[C@@H](Cc1c[nH]c2ccccc12)C(=O)N[C@@H](Cc1c[nH]cn1)C(=O)NCc1ccccc1 (Boc-Trp-His-NHBn)", "200 µg/mL"],
  ["CC(C)c1nc(C[C@H](NC(=O)[C@H](Cc2c[nH]c3ccccc23)NC(=O)OC(C)(C)C)C(=O)NCc2ccccc2)c[nH]1", "> 200 µg/mL"],
  ["COC(=O)[C@H](CCCNC(=N)N)NC(=O)[C@@H](N)Cc1c[nH]cn1 (H-His-Arg-OMe)", "> 200 µg/mL"]
]}

Okay, next one:
stdin: Annotate the compound "CC(C)c1nc(C[C@H](NC(=O)[C@@H](N)Cc2c[nH]c3ccccc23)C(=O)NCc2ccccc2)c[nH]1" with its measured MIC.
stdout: > 200 µg/mL

----------
# Tested on: Candida albicans
# Assay Notes: Antifungal activity against Candida albicans ATCC 10231 after 15 to 18 hrs under aerobic condition by modified broth microdilution method
# Assay type: functional
Where a SMILES comes first, the peptide text is derived from it. The star is where a group is joined. Boc = CC(C)(C)OC(=O)*
Answer each item with its documented MIC.

Check out these entries, answers already filled in.
{"columns": ["Compound", "Reported Property", "Measured"],
 "data": [
  ["COC(=O)[C@H](CCCNC(=N)N)NC(=O)[C@@H](N)Cc1c[nH]c(C23CC4CC(CC(C4)C2)C3)n1", "MIC", "> 200 µg/mL"],
  ["COC(=O)[C@H](Cc1c[nH]c(C(C)(C)C)n1)NC(=O)[C@H](Cc1c[nH]c2ccccc12)NC(=O)OC(C)(C)C", "MIC", "> 200 µg/mL"],
  ["COC(=O)[C@H](Cc1c[nH]c(C23CC4CC(CC(C4)C2)C3)n1)NC(=O)[C@@H](N)Cc1c[nH]c2ccccc12", "MIC", "> 200 µg/mL"],
  ["COC(=O)[C@H](CCCNC(=N)N)NC(=O)[C@@H](N)Cc1c[nH]c(C(C)(C)C)n1", "MIC", "100 µg/mL"]
]}

Please give MIC for each item listed below.
1. COC(=O)[C@H](CCCNC(=N)N)NC(=O)[C@@H](N)Cc1c[nH]c(C(C)C)n1
2. CC(C)(C)c1nc(C[C@H](N)C(=O)N[C@@H](CCCNC(=N)N)C(=O)NCc2ccccc2)c[nH]1
3. COC(=O)[C@H](Cc1c[nH]cn1)NC(=O)[C@H](Cc1c[nH]c2ccccc12)NC(=O)OC(C)(C)C (Boc-Trp-His-OMe)
4. CC(C)(C)OC(=O)N[C@@H](Cc1c[nH]c2ccccc12)C(=O)N[C@@H](Cc1c[nH]c(C2CCCCC2)n1)C(=O)NCc1ccccc1

stdout:
> 200 µg/mL
> 200 µg/mL
200 µg/mL
> 200 µg/mL

----------
# System: L929
# Assay Notes: Cytotoxicity against mouse L929 cells up to 200 ug/mL after 5 days by MTT assay
# Assay type: cell-based
# Conditions Used: l929, 120 h
Where a SMILES comes first, the peptide text is derived from it. The star is where a group is joined. NHBn = c1ccc(CN*)cc1
Reported Property: Activity

Check out these entries, answers already filled in.
{"columns": ["Compound", "Activity"],
 "data": [
  ["CC(C)c1nc(C[C@H](NC(=O)OC(C)(C)C)C(=O)N[C@@H](CCCNC(=N)N)C(=O)NCc2ccccc2)c[nH]1", "Non-toxic"],
  ["COC(=O)[C@H](Cc1c[nH]c(C2CCC2)n1)NC(=O)[C@H](Cc1c[nH]c2ccccc12)NC(=O)OC(C)(C)C", "Non-toxic"],
  ["N=C(N)NCCC[C@H](NC(=O)[C@@H](N)Cc1c[nH]cn1)C(=O)NCc1ccccc1 (H-His-Arg-NHBn)", "Non-toxic"],
  ["COC(=O)[C@H](CCCNC(=N)N)NC(=O)[C@@H](N)Cc1c[nH]c(C2CCCCC2)n1", "Non-toxic"],
  ["N=C(N)NCCC[C@H](NC(=O)[C@@H](N)Cc1c[nH]c(C2CCC2)n1)C(=O)NCc1ccccc1", "Non-toxic"]
]}

Please give Activity for each item listed below.
1. COC(=O)[C@H](CCCNC(=N)N)NC(=O)[C@@H](N)Cc1c[nH]cn1 (H-His-Arg-OMe)
2. CC(C)(C)OC(=O)N[C@@H](Cc1c[nH]c2ccccc12)C(=O)N[C@@H](Cc1c[nH]c(C23CC4CC(CC(C4)C2)C3)n1)C(=O)NCc1ccccc1
3. CC(C)(C)c1nc(C[C@H](N)C(=O)N[C@@H](CCCNC(=N)N)C(=O)NCc2ccccc2)c[nH]1
4. COC(=O)[C@H](CCCNC(=N)N)NC(=O)[C@H](Cc1c[nH]c(C23CC4CC(CC(C4)C2)C3)n1)NC(=O)OC(C)(C)C
5. CC(C)c1nc(C[C@H](N)C(=O)N[C@@H](CCCNC(=N)N)C(=O)NCc2ccccc2)c[nH]1
6. CC(C)(C)OC(=O)N[C@@H](Cc1c[nH]c2ccccc12)C(=O)N[C@@H](Cc1c[nH]c(C2CCC2)n1)C(=O)NCc1ccccc1

stdout:
Non-toxic
Non-toxic
Non-toxic
Non-toxic
Non-toxic
Non-toxic

----------
# Tested on: Klebsiella pneumoniae
# Assay Notes: Antibacterial activity against Klebsiella pneumoniae ATCC 700603 after 15 to 18 hrs under aerobic condition by modified broth microdilution method
# Assay type: functional
Where a SMILES comes first, the peptide text is derived from it. The star is where a group is joined. Boc = CC(C)(C)OC(=O)*; NHBn = c1ccc(CN*)cc1
Answer each item with its documented MIC.

Check out these entries, answers already filled in.
{"columns": ["Compound", "Tested Target", "MIC"],
 "data": [
  ["COC(=O)[C@H](CCCNC(=N)N)NC(=O)[C@@H](N)Cc1c[nH]c(C23CC4CC(CC(C4)C2)C3)n1", "Klebsiella pneumoniae", "200 µg/mL"],
  ["N=C(N)NCCC[C@H](NC(=O)[C@@H](N)Cc1c[nH]cn1)C(=O)NCc1ccccc1 (H-His-Arg-NHBn)", "Klebsiella pneumoniae", "> 200 µg/mL"]
]}

Please give MIC for each item listed below.
1. COC(=O)[C@H](Cc1c[nH]cn1)NC(=O)[C@H](Cc1c[nH]c2ccccc12)NC(=O)OC(C)(C)C (Boc-Trp-His-OMe)
2. COC(=O)[C@H](Cc1c[nH]c(C(C)(C)C)n1)NC(=O)[C@H](Cc1c[nH]c2ccccc12)NC(=O)OC(C)(C)C

stdout:
1: > 200 µg/mL; 2: > 200 µg/mL
